Kindly supply the reported IC50 values for the records listed here.
- measurement target: ATX (Homo sapiens (Human))
- assay comment: ATX enzyme inhibition assay (Amplex UltraRed/choline oxidase/HRP, 16:0 Lyso PC substrate)
- Type: biochemical
- condition set: assay buffer pH 7.5; read-out: IC50 (nM) pH 7.5
Numbers only, in nM.

Below are worked cases with known answers.
CN(c1nc(-c2ccc(F)cc2)c(C#N)s1)c1c2c(nc3c(F)cc(N4CCN(S(C)(=O)=O)[C@H](CO)C4)cc13)CCC2 | 171
CN(c1nc(-c2ccc(F)cc2)c(C#N)s1)c1c2c(nc3c(F)cc(N4CCN(C(=O)[C@@H]5CCOC5)CC4)cc13)CCC2 | 1230

Attention now turns to another entry.
In: Recall and state the measured IC50 for CN(c1nc(-c2ccc(F)cc2)c(C#N)s1)c1c2c(nc3c(F)cc(N4CCN(CC(=O)N5CC(F)(F)C5)CC4)cc13)CCC2 .
Out: 656
